Some molecules, each annotated with its measured relative β-galactosidase activity, inducer Es.
System: tetA promoter (PtetA)-lacZ reporter in E. coli KM3
Type: cell-based
run_conditions: Table 6, reverse repressor hits; ethametsulfuron, same plate assay format as Table 4
// response body must contain only the number

Summary for this molecule, L1-41: library L1 reverse repressor hit (SEQ ID NO: 1206-1213) (protein, rSuR L1-41) MGSRLDKSKVINSALELLNEVGIEGLTTRKLAQKLGVEQPTLYWHVKNKRALLDALAIEMLDRNQTHFCPLEGESWQDFLRNNAKSWRCALLSHRDGAKVMLGTRNTEKQYETAENGLAFLCQQGFSLENALYACRAVWTFTLGCVLDDQETQVAKEERETPTSDSMPPLLRQAMELKDHQGAEPAFLFGLELIICGLEKQLKCESGS : relative β-galactosidase activity, inducer Es is 0.18

Notebook: L1-33: library L1 reverse repressor hit (SEQ ID NO: 1206-1213) (protein, rSuR L1-33) MGSRLDKSKVINSALELLNEVGIEGLTTRKLAQKLGVEQPTLYWHVKNKRALLDALAIEMLDRHATHFCPLEGESWQDFLRNNAKSMRCALLSHRDGAKVQLGTAATEKQYETLENKLAFLCQQGFSLENALYAHSAVTQFTLGCVLRDQEGQVAKEERETPTTDSMPPLLRQARELRDHQGAEPAFLFGLELIICGLEKQLKCESGS , relative β-galactosidase activity, inducer Es read as 2.11

Looking up L1-36: library L1 reverse repressor hit (SEQ ID NO: 1206-1213) (protein, rSuR L1-36) MGSRLDKSKVINSALELLNEVGIEGLTTRKLAQKLGVEQPTLYWHVKNKRALLDALAIEMADRHHTHFCPLEGESWQDFLRNAAKSMRCALLSHRDGAKVRLGTAWTEKQYETHENVLAFLCQQGFSLENALYALKAVSGFTLGCVLKDQEMQVAKEERETPTTDSMPPLLRQATELVDHQGAEPAFLFGLELIICGLEKQLKCESGS , I found its relative β-galactosidase activity, inducer Es recorded as 0.20

// relative β-galactosidase activity, inducer Es value for L1-21: library L1 reverse repressor hit (SEQ ID NO: 1206-1213) (protein, rSuR L1-21) MGSRLDKSKVINSALELLNEVGIEGLTTRKLAQKLGVEQPTLYWHVKNKRALLDALAIEMLDRHATHFCPLEGESWQDFLRNNAKSFRCALLSHRDGAKVCLGTAGTEKQYETLENCLAFLCQQGFSLENALYARSAVVCFTLGCVLFDQEMQVAKEERETPTTDSMPPLLRQAAELLDHQGAEPAFLFGLELIICGLEKQLKCESGS : 0.61
